Reference for the values: patent US20260234115A1

assay: Dynamic light scattering: LNP particle size and PDI; type: physicochemical; conditions: LNP, Formulation F2, N/P 3
experimental.readout: PDI N/P:3

# annotated cases, reported PDI N/P:3 shown
[
  {
    "compound": "CCCCC/C=C\\CCOC(=O)CCCCCCC(=O)OCC(COC(=O)CCCCCCC(=O)OCC/C=C\\CCCCC)(COC(=O)CCCCCCC(=O)OCC/C=C\\CCCCC)COC(=O)CCC(CCCCCC)OC(=O)NCCN1CCCC1 (stereo not shown)",
    "experimental.readout": "PDI N/P:3",
    "recorded.number": 0.097
  },
  {
    "compound": "CCCCCCCC/C=C\\CCCCCCCC(=O)OCC(COC(=O)CCCCCCC/C=C\\CCCCCCCC)(COC(=O)CCCCCCC/C=C\\CCCCCCCC)COC(=O)CCC(CCCCCC)OC(=O)NCCN1CCCC1 (stereo not shown)",
    "experimental.readout": "PDI N/P:3",
    "recorded.number": 0.052
  }
]

[P] CCCCCCCC/C=C\CCCCCCCC(=O)OCC(COC(=O)CCCCCCC/C=C\CCCCCCCC)(COC(=O)CCC(CCCCCC)OC(=O)NCCN1CCCC1)COC(=O)CCC(OCCCCCCCC)OCCCCCCCC (stereo not shown)
[Q] CCCCC/C=C\C/C=C\CCCCCCCC(=O)OCC(COC(=O)CCCCCCC/C=C\C/C=C\CCCCC)(COC(=O)CCC(CCCCCC)OC(=O)NCCN1CCCC1)COC(=O)CCC(OCCCCCCCC)OCCCCCCCC (stereo not shown)
Rank P against Q by their PDI N/P:3 values and give the higher one. I would appreciate it if you answered with the label of your choice.
P

###

test system: mouse organs; assay: In vivo activity screening in mice: organ mean total flux (p/s) of luciferase activity after injection of F2 LNP pools (Table 6, FIG. 7A-7C); conditions: Mouse 12, dose 0.5 mg/kg, luciferase mRNA
Marks after values point to notes of the source that are not given here.
experimental.readout: Organ Mean Total Flux Lung

Observed Organ Mean Total Flux Lung on mouse organs for CCCCC/C=C\CCOC(=O)CCCCC(=O)OCC(COC(=O)CCCCC(=O)OCC/C=C\CCCCC)(COC(=O)CCC(CCCCCC)OC(=O)NCCN1CCCC1)COC(=O)C12CCC(CC1)CC2 (stereo not shown) [Compound 67] , please.
11.8 p/s (×10^6)

What do you have for CCCCC/C=C\CCOC(=O)CCCCC(=O)OCC(COC(=O)CCCCC(=O)OCC/C=C\CCCCC)(COC(=O)CCC(CCCCCC)OC(=O)NCCN1CCCC1)COC(=O)CC1CCC1 (stereo not shown) [Compound 73] ?
10.6 p/s (×10^6)

What do you have for CCCCC/C=C\CCOC(=O)CCCCC(=O)OCC(COC(=O)CCCCC(=O)OCC/C=C\CCCCC)(COC(=O)CCC(CCCCCC)OC(=O)NCCN1CCCC1)COC(=O)C12CCCC1C2 (stereo not shown) [Compound 101] ?
26.5 p/s (×10^6)

What do you have for CCCCC/C=C\CCOC(=O)CCCCC(=O)OCC(COC(=O)CCCCC(=O)OCC/C=C\CCCCC)(COC(=O)CCC(CCCCCC)OC(=O)NCCN1CCCC1)COC(=O)C1CC2(C1)CC(F)(F)C2 (stereo not shown) [Compound 100] ?
37.8 p/s (×10^6)

What do you have for CCCCC/C=C\CCOC(=O)CCCCC(=O)OCC(COC(=O)CCCCC(=O)OCC/C=C\CCCCC)(COC(=O)CCC(CCCCCC)OC(=O)NCCN1CCCC1)COC(=O)[C@]12CC[C@H](CC1)C2 (stereo partly shown) [Compound 99] ?
31.4 p/s (×10^6)

What do you have for CCCCC/C=C\CCOC(=O)CCCCC(=O)OCC(COC(=O)CCCCC(=O)OCC/C=C\CCCCC)(COC(=O)CCC(CCCCCC)OC(=O)NCCN1CCCC1)COC(=O)CC12CC3CC(CC(C3)C1)C2 (stereo not shown) [Compound 14] ?
32.4 p/s (×10^6)

What do you have for CCCCC/C=C\CCOC(=O)CCCCC(=O)OCC(COC(=O)CCCCC(=O)OCC/C=C\CCCCC)(COC(=O)CCC(CCCCCC)OC(=O)NCCN1CCCC1)COC(=O)C12CCC(F)(CC1)CC2 (stereo not shown) [Compound 93] ?
34.3 p/s (×10^6)
